- measured.target: COMT (Homo sapiens)
- Construct: His; host or cells: E. coli BL21
- Sequence (P21964 51-271): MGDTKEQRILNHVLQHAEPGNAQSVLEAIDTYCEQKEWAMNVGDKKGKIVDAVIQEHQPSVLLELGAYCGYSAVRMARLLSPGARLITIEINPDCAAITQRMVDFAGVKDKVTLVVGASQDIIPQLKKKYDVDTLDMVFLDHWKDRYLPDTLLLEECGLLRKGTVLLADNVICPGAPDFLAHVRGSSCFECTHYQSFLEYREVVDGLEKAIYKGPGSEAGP
- experiment.summary: COMT activity microplate assay (aesculetin methylation, fluorometric)
- Assay type: biochemical
metric: IC50 (nM)

>  <record.smiles>
CCN1C(=O)S/C(=C\c2cc(O)c(O)c([N+](=O)[O-])c2)C1=O

>  <metric>
IC50

>  <quantitative.result>
179

$$$$

###

- Tested on: HepG2 cells
- measurement.context: human, 100 μM
metric: mitochondrial membrane potential

>  <molecule>
Cc1ccc(C(=O)c2cc(O)c(O)c([N+](=O)[O-])c2)cc1 [tolcapone, reference compound]

>  <metric>
mitochondrial membrane potential

>  <result>
0-5 % of the control

$$$$
>  <molecule>
CCN1C(=O)S/C(=C\c2cc(O)c(O)c([N+](=O)[O-])c2)C1=O

>  <metric>
mitochondrial membrane potential

>  <result>
0-5 % of the control

$$$$
>  <molecule>
CCN(CC)C(=O)/C(C#N)=C/c1cc(O)c(O)c([N+](=O)[O-])c1 [entacapone, reference compound]

>  <metric>
mitochondrial membrane potential

>  <result>
40-50 % of the control

$$$$
>  <molecule>
CCN(CC)C(=O)c1cc2cc(O)c(O)c([N+](=O)[O-])c2cc1C(=O)N(CC)CC

>  <metric>
mitochondrial membrane potential

>  <result>
40-50 % of the control

$$$$

Each recorded value in this set is attributed to patent US11008282B2.
